We begin with a simple list: items and their reported Selectivity IC50(AChE)/IC50(BChE).
- target of assay: BChE from the plasma (Homo sapiens (Human), UniProt P06276)
- Sequence (P06276 29-602): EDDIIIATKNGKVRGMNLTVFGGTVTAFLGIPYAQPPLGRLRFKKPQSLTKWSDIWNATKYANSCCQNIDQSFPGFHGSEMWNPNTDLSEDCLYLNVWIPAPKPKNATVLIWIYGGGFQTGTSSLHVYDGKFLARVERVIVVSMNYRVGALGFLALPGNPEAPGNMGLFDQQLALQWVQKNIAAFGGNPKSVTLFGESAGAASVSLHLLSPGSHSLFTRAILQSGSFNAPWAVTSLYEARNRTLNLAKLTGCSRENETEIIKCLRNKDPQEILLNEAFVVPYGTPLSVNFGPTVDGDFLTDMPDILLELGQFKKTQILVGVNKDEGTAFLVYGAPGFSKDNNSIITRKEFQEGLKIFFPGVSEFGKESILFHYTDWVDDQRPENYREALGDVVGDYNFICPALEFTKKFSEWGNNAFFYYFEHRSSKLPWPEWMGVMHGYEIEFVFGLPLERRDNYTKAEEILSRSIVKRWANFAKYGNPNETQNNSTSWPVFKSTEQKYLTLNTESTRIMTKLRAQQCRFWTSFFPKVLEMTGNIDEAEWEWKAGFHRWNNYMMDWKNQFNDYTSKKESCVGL
- procedure text: Ellman's method, butyrylcholinesterase inhibition
- Assay type: biochemical
- study conditions: ratio of IC50 for AChE to IC50 for BChE

CC(=O)NCCc1c[nH]c2ccc(OC(=O)NCCCCCCCNc3c4c(nc5ccc(Cl)cc35)CCCC4)cc12 45.3

Data request: Quick one: Selectivity IC50(AChE)/IC50(BChE) of `CC(=O)NCCc1c[nH]c2ccc(OC(=O)NCCCNc3c4c(nc5ccccc35)CCCC4)cc12` ?
Data returned: 4.6

Data request: # input compound: `CC(=O)NCCc1c[nH]c2ccc(OC(=O)NCCNc3c4c(nc5ccc(Cl)cc35)CCCC4)cc12` ; wanted: its Selectivity IC50(AChE)/IC50(BChE)
Data returned: 400.1
